Data origin: PubChem BioAssay

target: Protein kinase 7 (PK7), Plasmodium falciparum 3D7 (PF3D7_0213400); experiment: inhibition of Plasmodium PK7 catalytic activity – biochemical, TCAMS antimalarial set, Kinase-Glo luminescence (AID 1159587); settings: recombinant PfPK7, Kinase-Glo ATP depletion luminescence
Active and inactive are the calls of the source. The rule behind the calls is not given here.
measurement kind: outcome

Would you please look over these solved cases?
>  <compound>
CN1CCCC(CN2CCN(Cc3cccc(-c4ccc(-c5nc6ccccc6[nH]5)cc4)c3)CC2)C1 (centres undefined)

>  <recorded result>
inactive

$$$$
>  <compound>
CCN(CC)CCN(Cc1ccc(-c2ccc(C(F)(F)F)cc2)cc1)C(=O)Cn1c(CCc2cccc(C#N)c2)nc(=O)c2ccccc21

>  <recorded result>
inactive

$$$$
>  <compound>
Cc1cc(F)ccc1Oc1nc(Nc2ccc(N3CCOCC3)c(F)c2)nc2c1S(=O)(=O)CCC2

>  <recorded result>
inactive

$$$$
>  <compound>
COc1cc(OC)c(NC(=O)C2c3ccccc3C(=O)N(CC(C)C)C2c2cccs2)cc1Cl (centres undefined)

>  <recorded result>
inactive

$$$$
>  <compound>
O=C(Nc1ccc(OC(F)(F)F)cc1)Nc1ccc([N+](=O)[O-])cc1

>  <recorded result>
inactive

$$$$

Ask: Which outcome is reported for this compound? COc1nc2c(N3CCN(CCNCc4ccc5c(n4)NC(=O)CS5)CC3)ccnc2cc1F
Reply: inactive

Ask: Would you mind telling me what outcome value was observed for O=C(NC1CC1)c1ccc(N2CCC(Oc3ccc(F)cc3)CC2)nc1 ?
Reply: inactive

Ask: Can you share its outcome? I mean this compound: Cc1cc(N2Cc3ccccc3C2)nc(Nc2cccc(C#N)c2)n1
Reply: inactive

Ask: Would you kindly share the measured outcome for CS(=O)(=O)c1ccc(CNCc2cccc(-c3cccc(-c4nc5ccc(C(F)(F)F)cc5[nH]4)c3)c2)cc1 ?
Reply: inactive

----------
test: antimalarial activity against Dd2 strain (AID 2302);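 note: 0% = DMSO untreated growth and 100% = chloroquine plus artemisinin killed control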; settings: P. falciparum Dd2 in RBCs, LDH growth readout, 72 h; at 2 µM
Active and inactive are the calls of the source.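 Rule for the calls: active = growth inhibition above 50% at the single 2 µM test dose, taken to imply half-maximal potency below 2 µM; inactive = the rest.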
In this exercise, the only acceptable responses are active, inactive

>  <compound>
NC(=O)CCC(NC(=O)CNC(=O)Nc1cccc(C(F)(F)F)c1)C(=O)O (stereo not given)

>  <class>
active

$$$$

Ask: Tell me the recorded outcome of this test for N#Cc1cccc(NC(=O)Nc2cccc(-c3cccc(-c4nc5ccccc5[nH]4)c3)c2)c1 .
Reply: active

Ask: Called result for CC1(C)CNCc2cc(NC(=O)/C=C/c3ccc(Cl)cc3)ccc21
Reply: inactive

Ask: Recorded call for Cc1cccc(C)c1N1CCN(C2CCC(NC(=O)c3cc4ccccc4[nH]3)CC2)CC1 (stereo not given) ?
Reply: active

----------
Listed here are molecules together with their documented growth inhibition.
experiment: inhibition of 3D7 malaria parasite growth – strain 3D7 (AID 2306);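 note: 0% = DMSO wells and 100% = chloroquine plus artemisinin control wells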; details: P. falciparum 3D7 erythrocytic growth, LDH absorbance, 72 h; at 2 µM; hits give high values
Kindly provide the numeric value in % only, without the unit symbol.

See these solved cases before continuing.
>  <molecule>
O=C(Nc1ccc(CC(=O)N2CCc3cc(Cl)c(N4CCN(C/C=C/c5ccccc5)CC4)cc32)cc1)Nc1cccc([N+](=O)[O-])c1

>  <growth inhibition, %>
95

$$$$
>  <molecule>
CS(=O)(=O)c1ccc(CCNCc2ccc(-c3ccc(CN(C(=O)C4CC(=O)c5ccccc54)C4Cc5ccccc5C4)cc3)nc2)cc1 (stereo not given)

>  <growth inhibition, %>
90

$$$$
>  <molecule>
CNCCNCc1cccc(-c2cccc(-c3nc4c(C)cccc4[nH]3)c2)c1

>  <growth inhibition, %>
98

$$$$
>  <molecule>
Cc1cccc2[nH]c(-c3cccc(-c4ccc(NC(=O)CN5CCOCC5)cc4)c3)nc12

>  <growth inhibition, %>
94

$$$$
>  <molecule>
COc1ccccc1C(=O)Nc1ccc(Nc2nc(C)cc(N3CCOCC3)n2)cc1

>  <growth inhibition, %>
98

$$$$

Ask: Please look up its growth inhibition: c1ccc(N2CCN(c3cc(-c4cccnc4)nc(-c4ccncc4)n3)CC2)nc1
Reply: 99

Ask: I am curious: what growth inhibition value has been reported for CCCCN(C)CC#Cc1ccc(-c2ccc3[nH]c(C)c(Br)c(=O)c3c2)cn1 ?
Reply: 98

Ask: Give the measured growth inhibition of CCc1nc(N)nc(N)c1-c1ccc(C(C)C)cc1 .
Reply: 92

Ask: Please look up its growth inhibition: Cc1cccc2[nH]c(-c3ccc(-c4ccc(NC(=O)C(C)CN5CCN(C)CC5)cc4)s3)nc12 (stereo not given)
Reply: 101

Ask: growth inhibition lookup needed for Cc1cccc(CN2CCCN(Cc3ccc(C(=O)Nc4ccc(C)c(F)c4)cc3)CC2)c1 , thanks.
Reply: 85

Ask: I'd like to know its growth inhibition. The molecule in question is OC(CNCc1ccccc1OCc1ccccc1)c1cccc(I)c1 (stereo not given)
Reply: 100

----------
assay: antimalarial activity against Dd2 strain (AID 2302);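 note: 0% = DMSO untreated growth and 100% = chloroquine plus artemisinin killed control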; conditions: P. falciparum Dd2 in RBCs, LDH growth readout, 72 h; at 2 µM
Activity calls are given as the source filed them.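 Rule for the calls: active = growth inhibition above 50% at the single 2 µM test dose, taken to imply half-maximal potency below 2 µM; inactive = the rest.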
Respond with a class label; see T for active, F for inactive

The following compounds have reported results that may help.
>  <compound>
COCCN1CCC(N(Cc2ccc(-c3ccc(C(F)(F)F)cc3)cc2)C(=O)Cn2c(CCc3cccc(F)c3F)cc(=O)c3c2CCC3)CC1

>  <class>
F

$$$$
>  <compound>
CCCN(CCCCNC(=O)c1ccc(-c2cccnc2)cc1)C1CCc2c(O)cccc2C1 (stereo not given)

>  <class>
F

$$$$
>  <compound>
CCOc1ccc(-c2nonc2NC(=O)c2ccc(OC(C)C)cc2)cc1OCC

>  <class>
T

$$$$

--- query ---
Ask: Kindly provide the recorded test outcome for the following compound: CCc1c(C)nc(-n2nc(C)cc2NC(=O)C2c3ccccc3Oc3ccccc32)[nH]c1=O
Reply: T

----------
assay: HepG2 cytotoxicity, primary screen, cytotoxicity control for P. falciparum antimalarial project, cell-based, ATP luminescence (AID 2303); settings: HepG2 viability, 24-48 h, at 10 µM, hits give high values;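 note: 0% = DMSO wells and 100% = digitonin-killed cells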
Listed below: inhibition values for each entry.
Unit % implied. Number only.

Please review the entries below; each comes with its answer.
>  <molecule>
Cc1ccccc1C1CCN(C2CCC(NC(=O)/C=C/c3ccc(C#N)cc3)CC2)CC1 (stereo not given)

>  <unit info>
%

>  <inhibition>
39

$$$$
>  <molecule>
COc1ccccc1N1CCN(Cc2c(NC(C)=O)sc(C)c2C)CC1

>  <unit info>
%

>  <inhibition>
9

$$$$
>  <molecule>
O=C(NCc1cccc(C(F)(F)F)c1)c1ccc(-c2nc3cc(F)c(F)cc3[nH]2)cc1

>  <unit info>
%

>  <inhibition>
-1

$$$$

Ask: Which inhibition reading was recorded for the molecule CN(C)CCC1CCCc2ccc(NC(=O)Nc3ccc(-c4ccncc4)c4ccccc34)cc21 (stereo not given) ?
Reply: 34

Ask: Fill blank: measured inhibition of the molecule Cc1ccc2nc(C)cc(NN=Cc3cccc(F)c3)c2c1 is ____.
Reply: 6

----------
assay: antimalarial activity against Dd2 strain (AID 2302);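 note: 0% = DMSO untreated growth and 100% = chloroquine plus artemisinin killed control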; conditions: P. falciparum Dd2 in RBCs, LDH growth readout, 72 h; at 2 µM
The source made the active and inactive calls.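 Rule for the calls: active = growth inhibition above 50% at the single 2 µM test dose, taken to imply half-maximal potency below 2 µM; inactive = the rest.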
Could you please pick one outcome from this set? active, inactive

See these solved cases before continuing.
>  <compound>
NC(N)=NN=CC(=O)Nc1ccc(Cl)c(Cl)c1

>  <class>
inactive

$$$$
>  <compound>
Cc1[nH]c(C)c(-c2ccc(S(=O)(=O)c3ccc(Cl)cc3)cc2)c(=O)c1Cl

>  <class>
active

$$$$
>  <compound>
O=C(Cc1cnc[nH]1)Nc1ccc(-c2ccc(-c3nc4ccccc4[nH]3)s2)cc1

>  <class>
inactive

$$$$

Ask: I'd appreciate the recorded outcome for CCCCCCN1CCCN(Cc2cccc(C(=O)Nc3ccc(C(C)(C)C)cc3)c2)CC1 from this test.
Reply: inactive

Ask: # lookup: test call for O=C(/C=C/c1ccc(Cl)c(Cl)c1)N1CCC(CCCN2CCC(c3c[nH]c4ccccc34)CC2)CC1
Reply: inactive

Ask: State the result this test recorded for CCCCCCC(C)c1cc(OCCN(CC)CC)c2c(c1)OC(C)(C)C=C2c1ccncc1 (centres undefined) .
Reply: active

Ask: # outcome recorded in this test, key = CCN(CC)Cc1cccc(-c2cc3c(-c4ccc(C(=O)O)c(C(C)C)c4)ccnc3[nH]2)c1OC
Reply: active

Ask: Query: recorded result category for COc1cc2nccc(Nc3ccc(OCc4ccc(NC(C)=O)cc4)cc3)c2cc1OC in this test
Reply: active

Ask: Tell me the assay call for COc1cc(N(Cc2ccc(F)cc2)C(=O)c2ccc(-c3ccccc3)cc2)ccc1OCCN1CCCC1 please.
Reply: inactive

----------
Listing of recorded inhibition by entry.
assay: HepG2 cytotoxicity, primary screen, cytotoxicity control for P. falciparum antimalarial project, cell-based, ATP luminescence (AID 2303); conditions: HepG2 viability, 24-48 h, at 10 µM, hits give high values;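 note: 0% = DMSO wells and 100% = digitonin-killed cells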
Entry rule: numbers only, all in %.

Some solved cases for reference:
>  <molecule>
COc1cc2nccc(Nc3ccc4c(cnn4Cc4cccc(F)c4)c3)c2cc1OC

>  <measurement kind>
inhibition

>  <recorded result>
29

$$$$
>  <molecule>
CNC(=O)c1cc(Nc2nnc(-c3ccc(C)c(S(=O)(=O)NC4CCCCC4)c3)c3ccccc23)ccc1OC

>  <measurement kind>
inhibition

>  <recorded result>
-10

$$$$
>  <molecule>
Cc1ccc(CNC(=O)[C@H](CC(C)C)Nc2cc(C)nc(NCc3ccccc3C)n2)cc1

>  <measurement kind>
inhibition

>  <recorded result>
3

$$$$
>  <molecule>
COc1ccc(NS(=O)(=O)c2cc(NC(=O)Cn3ccccc3=O)ccc2N2CCCCC2)cc1

>  <measurement kind>
inhibition

>  <recorded result>
20

$$$$
>  <molecule>
O=C(Nc1cccc(-c2ccc(CN3CCCC3)cc2)c1)c1cccc(F)c1

>  <measurement kind>
inhibition

>  <recorded result>
20

$$$$
>  <molecule>
Oc1cccc(Nc2nc(NCC3CCCO3)c3ccccc3n2)c1 (centres undefined)

>  <measurement kind>
inhibition

>  <recorded result>
-9

$$$$
>  <molecule>
COc1ccc(NC(=O)c2ccc(Br)c(C)c2)cc1N1CCN(CCCCc2ccccc2)CC1

>  <measurement kind>
inhibition

>  <recorded result>
29

$$$$
>  <molecule>
Cn1cncc1CCN(Cc1ccc(-c2ccc(C(F)(F)F)cc2)cc1)C(=O)Cn1c(CCc2cccc(F)c2F)cc(=O)c2cccnc21

>  <measurement kind>
inhibition

>  <recorded result>
44

$$$$

Ask: Query (molecule): CCOC(=O)CNC(=O)N1CCN(C(=O)NCC(=O)OCC)CC1 ; field requested: inhibition
Reply: -9

Ask: Suppose we examine the molecule CC(C)C[C@H](Nc1ccc(C#N)c2ccccc12)C(=O)NC(C)(C)C12CC3CC(CC(C3)C1)C2 ; what inhibition value has been reported?
Reply: 19

Ask: # get_value(readout='inhibition', item= NC(N)=Nc1nc(-c2ccc(NCc3ccc(CNc4cccc(-c5csc(N=C(N)N)n5)c4)cc3)cc2)cs1 )
Reply: 11
